# STUDY SYSTEM: human TLR9 (Homo sapiens, UniProt Q9NR96)
# Sequence (Q9NR96 26-1032): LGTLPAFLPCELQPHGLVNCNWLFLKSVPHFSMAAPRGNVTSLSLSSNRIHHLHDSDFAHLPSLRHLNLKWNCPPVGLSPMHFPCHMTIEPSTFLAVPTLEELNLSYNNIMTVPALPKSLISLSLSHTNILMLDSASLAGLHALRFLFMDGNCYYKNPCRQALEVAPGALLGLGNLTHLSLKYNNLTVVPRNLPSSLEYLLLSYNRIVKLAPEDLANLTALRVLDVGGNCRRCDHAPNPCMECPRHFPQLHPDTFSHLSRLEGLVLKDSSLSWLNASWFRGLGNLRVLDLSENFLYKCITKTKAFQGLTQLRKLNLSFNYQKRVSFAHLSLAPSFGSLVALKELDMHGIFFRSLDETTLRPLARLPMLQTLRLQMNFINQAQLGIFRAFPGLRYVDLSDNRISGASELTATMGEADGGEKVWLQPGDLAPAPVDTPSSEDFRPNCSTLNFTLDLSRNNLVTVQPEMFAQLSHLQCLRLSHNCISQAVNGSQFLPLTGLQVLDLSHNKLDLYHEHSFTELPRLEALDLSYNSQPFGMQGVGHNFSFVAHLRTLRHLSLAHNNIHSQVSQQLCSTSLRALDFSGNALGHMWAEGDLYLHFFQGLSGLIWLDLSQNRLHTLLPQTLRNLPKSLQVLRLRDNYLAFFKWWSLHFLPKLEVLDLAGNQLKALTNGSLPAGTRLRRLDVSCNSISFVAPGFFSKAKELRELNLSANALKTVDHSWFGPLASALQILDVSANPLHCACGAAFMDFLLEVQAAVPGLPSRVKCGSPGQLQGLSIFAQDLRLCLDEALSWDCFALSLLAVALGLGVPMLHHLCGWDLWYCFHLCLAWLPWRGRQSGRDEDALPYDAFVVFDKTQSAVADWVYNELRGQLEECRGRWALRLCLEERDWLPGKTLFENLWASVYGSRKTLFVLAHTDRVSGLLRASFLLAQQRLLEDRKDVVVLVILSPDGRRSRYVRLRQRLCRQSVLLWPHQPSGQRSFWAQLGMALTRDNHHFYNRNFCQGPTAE
# PROTOCOL: TLR9 inhibition reporter assay (HEK-Blue SEAP reporter, ODN2006 stimulation)
# CONDITION SUMMARY: HEK-Blue cells overexpressing human TLR9, SEAP reporter, ODN2006 5 nM, 22 hour incubation
In plain terms, low IC50, meaning strictly below 10 µM, gives MET, and everything else gives NOT MET.

Enquiry: Dear colleague, could you confirm whether IC50 of CC(C)c1c(-c2ccc(=O)n(CC(C)(C)O)c2)[nH]c2ccc(C3CCNCC3)cc12 falls below 10 µM? Thanks.
Return: MET

Enquiry: What about this compound? Cc1cc(-c2[nH]c3ccc(C4CCN(Cc5ncnn5C)CC4)cc3c2C(C)C)cn(C)c1=O
Return: NOT MET

Enquiry: What about this compound? Cc1cc(-c2[nH]c3ccc(C4CCN(CC(=O)N(C)C)CC4)cc3c2C(C)C)cn(CCO)c1=O
Return: NOT MET

Enquiry: What about this compound? Cc1cc(-c2[nH]c3ccc(C4CCN(Cc5cnn(C)c5)CC4)cc3c2C(C)C)cn(C)c1=O
Return: MET

Enquiry: What about this compound? Cc1cc(-c2[nH]c3ccc(C4CCN(CC(=O)N5CC[C@@H](O)C5)CC4)cc3c2C(C)C)cn(C)c1=O
Return: MET

Enquiry: What about this compound? COCc1cc(-c2[nH]c3ccc(C4CCN(C(=O)CN(C)C)CC4)cc3c2C(C)C)cn(C)c1=O
Return: NOT MET

Enquiry: What about this compound? Cc1cc(-c2[nH]c3ccc(C4CCN(C(=O)CN(C)C)CC4)cc3c2C(C)C)cn(C)c1=O
Return: NOT MET

Enquiry: What about this compound? Cc1cc(-c2[nH]c3ccc(C4CCN(CCCO)CC4)cc3c2C(C)C)cn(C)c1=O
Return: MET
